These entries and their values trace back to paper PMC4085599.

Test system: Calu-3 cells
Assay: MTT cell viability assay on Calu-3 cells after exposure to test solutions
Type: cell-based, Human
Settings: 0.2% w/v test solution, 60 min incubation, MTT, relative to negative control, n = 4
Description: The Calu-3 cells were used at passages 5–10. They were cultured in 96-well plates (Fisher Scientific) in 1:1 DMEM/F-12 supplemented with 10% FBS, 1% Glutamax®, 100 U/mL penicillin, and […] streptomycin using our previously described method. […] Irritant selection, concentration and exposure time were based on mucociliary clearance time and published work in which the compounds were used. […] Subsequently, the effect of the test compounds on the cells was determined using MTT assay. […]
In this section we review reported Calu-3 %Viability ± SD values for a set of compounds.
measurement-label: Calu-3 %Viability ± SD (%)

[[record]]
compound = "CCCC(C)CO (centres unmarked)"
unit_symbol = "%"
number = 95.0

[[record]]
compound = "CC(C)=O"
unit_symbol = "%"
number = 100.4

[[record]]
compound = "CCO [Anhydrous ethanol]"
unit_symbol = "%"
number = 99.1

[[record]]
compound = "[Na+].[OH-] [Sodium hydroxide]"
unit_symbol = "%"
number = 4.6

[[record]]
compound = "OC1CCCCC1"
unit_symbol = "%"
number = 89.9

[[record]]
compound = "O=C([O-])C(=O)[O-].[Na+].[Na+] [Sodium oxalate]"
unit_symbol = "%"
number = 65.4

[[record]]
compound = "CCCCCCCCCCCCOS(=O)(=O)[O-].[Na+] [Sodium dodecyl sulphate USP]"
unit_symbol = "%"
number = 4.3


---

Test system: Calu-3 cells
Assay: MTT cell viability assay on Calu-3 cells after exposure to test solutions
Assay type: cell-based, Human
Settings: 1.0% w/v test solution, 60 min incubation, MTT, relative to negative control, n = 4
Kind request: treat 10% as inclusive, so Calu-3 %Viability ± SD at 10% or higher is TRUE, anything lower is FALSE.

[[record]]
compound = "[Na+].[OH-] [Sodium hydroxide]"
class = "TRUE"

[[record]]
compound = "CC(C)=O [Acetone]"
class = "TRUE"

[[record]]
compound = "O=C([O-])C(=O)[O-].[Na+].[Na+] [Sodium oxalate]"
class = "TRUE"

[[record]]
compound = "CCO [Anhydrous ethanol]"
class = "TRUE"

[[record]]
compound = "OC1CCCCC1 [Cyclohexanol]"
class = "TRUE"

[[record]]
compound = "CCCCCCCCCCCCOS(=O)(=O)[O-].[Na+] [Sodium dodecyl sulphate USP]"
class = "FALSE"


---

Assay: MTT cell viability assay on Calu-3 cells after exposure to test solutions
Type: cell-based, Human
Settings: human; 1.0% w/v test solution, 60 min incubation, MTT, relative to negative control, n = 4; read-out: Calu-3 %Viability ± SD
measurement-label: viability at 60 min, 1 % w/v

[[record]]
compound = "CCCCCCCCCCCCCCCC[n+]1ccccc1 [Cetylpyridinium bromide]"
measurement_label = "viability at 60 min, 1 % w/v"
result = "< 17%"


---

Assay: MTT cell viability assay on Calu-3 cells after exposure to test solutions
Type: cell-based, Human
Conditions: human, Calu-3 cells, 1.0% w/v test solution, 60 min incubation, MTT, relative to negative control, n = 4; read-out: Calu-3 %Viability ± SD
Rule: measured viability at 60 min, 1 % w/v below 80% gets fulfilled; anything equal to or greater than 80% gets not fulfilled.

[[record]]
molecule = "CCCCCCCCCCCCCCCC[n+]1ccccc1 [Cetylpyridinium bromide]"
class = "fulfilled"

[[record]]
molecule = "Nc1ccc(F)cc1 [4-Fluoroaniline]"
class = "fulfilled"

[[record]]
molecule = "CC(=O)CC(C)C [Methyl isobutyl ketone]"
class = "not fulfilled"

[[record]]
molecule = "CCCC(C)CO (stereo not shown) [2-Methyl-1-pentanol]"
class = "fulfilled"

[[record]]
molecule = "COCC(O)CO (stereo not shown) [3-Methoxy-1,2-propanediol]"
class = "not fulfilled"

[[record]]
molecule = "OCC(O)CO [Glycerol]"
class = "not fulfilled"

[[record]]
molecule = "Cc1ccccc1 [Toluene]"
class = "not fulfilled"

